From: the RNAGym collection of RNA variant scans (doi:10.1101/gr.219683.116)

B1: mRNA-splicing (parent)
chain: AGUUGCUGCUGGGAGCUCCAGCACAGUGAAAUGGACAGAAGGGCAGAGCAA

Variants of: B1
Protocol text: exon inclusion enrichment index; higher = more inclusion; WT1 exon 5 minigene, HEK293
Metric: exon inclusion enrichment index
Just the number.

G5A C6U U7A G8U C9A U27G G28U | 0.00125

(Q) Give its exon inclusion enrichment index value. Item: G5A C6U U7A G8U C9A G41C
(A) 0.435

(Q) Cool, now C6A U7A C9A U10A A25G G26A
(A) 2.29

(Q) Cool, now G5A C6G U7G C9A G26C
(A) 0.00298

(Q) Cool, now C6A U7A C9A U10A A45G G46U
(A) 0.543

(Q) Cool, now G5C C6G U7G C9A
(A) 1.02

(Q) Cool, now G5A C6G U7G C9A G13C
(A) 0.00103

(Q) Cool, now U7C G8C
(A) 1.02

(Q) Cool, now C6A U7C C9A U10C G38C A39U
(A) 0.489

(Q) Cool, now C6A U7A C9A U10A C44A A45C
(A) 1.9
